target: PDZRN4_1, Q6ZMN7; test: holdup assay; design: key: below the threshold = too weak to quantify, mostly under pKd 3.1 to 4; conditions: plain residues with an end cap or a label only (N-terminal biotin on a linker: ado-ado)
Sequence (Q6ZMN7 213-318): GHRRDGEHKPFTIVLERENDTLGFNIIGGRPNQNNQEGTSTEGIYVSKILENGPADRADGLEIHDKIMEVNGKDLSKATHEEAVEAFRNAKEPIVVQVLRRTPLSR
resultType: pKd

Consider the worked cases shown below.
binder | pKd
VKRNSKETVV [MARCHF3, Q86UD3] | below the threshold
DFLSTFHIRI [CIB2, O75838] | below the threshold
SLNANEVEWF [RNF130, Q86XS8] | below the threshold
RQKEVRESKC [SCN8A, Q9UQD0] | below the threshold

We next turn to a different binder, shown below.
Query: pKd; subject: MQHQRTHTRV [ZSCAN30, Q86W11] below the threshold
